Molecular target: farnésyltransférase humaine (Homo sapiens, UniProt P49354+P49356)
Construct: farnésyltransférase humaine purifiée à partir de cultures de cellules THP1; endogenous in cells; host or cells: THP1 cell cultures (enzyme purified from them)
Assay: Farnesyltransferase inhibition: transfer of (3H) farnesyl from (3H) FPP to p21 H-Ras
Type: biochemical
Conditions: read-out: Activité inhibitrice IC50
pIC50: −log10 of the molar value.

{"columns": ["STRUCTURE NOTATION", "TARGET UNDER TEST", "pIC50"],
 "data": [
  ["CS(=O)(=O)CC[C@H](NC(=O)c1cccc2cc(NC[C@@H](N)CS)ccc12)C(=O)O", "farnésyltransférase humaine (Homo sapiens, UniProt P49354+P49356)", 8.40]
]}
